For each entry below, report its %Inh value.
- Tested on: PIK3CD
- recordedConditions: concentration: 1 μM, replicates: in singlicate; n = 1;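 note: KINOMEscan kinase panel screen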
Include the unit right after the number.

IN: Consider the compound COc1cc(Nc2nccc(N3CCC(NC(=O)Nc4cc(C)ccc4C)C3)n2)cc(OC)c1OC (stereo not shown) [GSK1379762] and give its recorded %Inh.
OUT: 39%

IN: Give %Inh for the following compound: Cc1csc(-c2nc(Nc3ccncc3)c3ccccc3n2)n1 [GW869640]
OUT: 26%

IN: Kindly indicate its recorded %Inh. Item: Cc1nnc(-c2ccc3occ(-c4ccc(S(C)=O)cc4)c3c2)[nH]1 (stereo not shown)
OUT: 0%

IN: Item Fc1cc(Cl)ccc1Nc1ccnc2cc(-c3ccc(CN4CCCCC4)o3)ccc12 [GW560116] : provide %Inh
OUT: 0%

###

Can you tell me %Inh for the items I'm about to list?
- System: p38-beta
- Construct: gene MAPK11
- recordedConditions: concentration: 1 μM, replicates: in singlicate; n = 1
Unit % implied. Number only.

IN: Note %Inh for the compound shown: CC(=O)Nc1nc2cnc(Nc3cc(NC(=O)c4cccc(CCC#N)c4)ccc3C)nc2s1
OUT: 17

IN: Query %Inh for COc1ccc2nc(-c3cccc(C)n3)nc(Nc3ccncc3)c2c1 [GSK204919]
OUT: 0

IN: In one line, give reported %Inh of the entry Cc1cc(NCC(c2ccccc2)c2ccccc2)nc(NCc2ccc(C(F)(F)F)cc2)n1 [GW497681] .
OUT: 0

IN: Using known records, supply %Inh for Nc1nc(-c2nccs2)c(-c2ccnc3ccccc23)s1 [GW693542]
OUT: 0

IN: Determine its reported %Inh: COC(=O)c1c(-c2ccccc2)c2cc(C(=O)O)ccc2c(=O)n1Cc1ccccc1
OUT: 19

IN: Give %Inh for the following compound: Cc1cc(-c2ccc3c(c2)CC[C@@H](N[C@@H](C)c2ccccc2)C3)cnc1N.Cl [GW412617]
OUT: 0

IN: Specify %Inh for COC(=O)c1c(-c2ccccc2)c2cc(OC)ccc2c(=O)n1Cc1ccccc1 and stop.
OUT: 7

###

Record form. Attribute: %Inh. Fill in for each entry.
- Tested on: YES
- Construct: gene YES1
- recordedConditions: concentration: 1 μM, replicates: in singlicate; n = 1
Give a bare numeral; the unit % is implied.

IN: Look up and state reported %Inh for CC(C)(C)c1ccc(C(=O)Nc2cn3cc(-c4cccnc4)ccc3n2)cc1
OUT: 10

IN: // Input: Cn1cncc1-c1ccc2ncnc(Nc3ccc(OCc4ccccc4)cc3)c2c1 . Output its %Inh only.
OUT: 26

IN: Indicate the recorded %Inh value for this compound: O=C(Nc1n[nH]c2nc(-c3nccs3)c(Br)cc12)C1CCCC1
OUT: 10

IN: Given Cc1nnc(-c2ccc3occ(-c4ccc(S(C)=O)cc4)c3c2)[nH]1 (stereo not drawn) , respond with its %Inh.
OUT: 0

IN: Give %Inh for CS(=O)(=O)c1ccc(-c2nc3n(c2-c2ccncc2)CCC3)cc1
OUT: 33

IN: For the compound C[C@@H]1CCCCN1c1cc(-c2ccc3c(N)n[nH]c3c2)nc(N)n1 , give its reported %Inh.
OUT: 14

###

- Tested on: CLK1
- recordedConditions: concentration: 1 μM, replicates: in singlicate; n = 1
Kindly return condition met if reported %Inh is no lower than 20%; return condition not met if it is lower.

IN: Hi, just wondering whether COc1ccc2nc(-c3cccc(C)n3)nc(Nc3ccncc3)c2c1 [GSK204919] shows %Inh of 20% or higher.
OUT: condition not met

IN: Reported %Inh at or above 20%? O=C(Nc1ccccc1)Nc1cccc(Oc2ccc3nccn3n2)c1
OUT: condition not met

IN: Item CC1=C(C(=O)Nc2cc3cn[nH]c3cc2F)C(c2ccc(C(F)(F)F)cc2)CC(=O)N1 (centres unmarked) [GSK429286] with %Inh of 20% or above?
OUT: condition not met

IN: For this compound, is measured %Inh 20% or higher? Fc1cc(Cl)ccc1Nc1ccnc2cc(I)ccc12 [GW551191]
OUT: condition met

IN: // inclusive: %Inh at least 20%? input: Cc1csc(-c2nc(Nc3ccncc3)c3ccccc3n2)n1 [GW869640]
OUT: condition not met
